assay protocol: Biodistribution in mice bearing bilateral PC3-WT/PC3-CXCR4 xenograft tumors
Format: in vivo, BALB/c mice
details: male, BALB/c athymic nude, mouse, PC3-CXCR4 tumor and muscle, iv, total radioactivity, 2 h p.i.; read-out: PC3-CXCR4 Tumor-to-Tissue Ratio Muscle
Experimental: All animal studies were approved by the Institutional Animal Care and Use Committee of Weill Cornell Medicine (Protocol Number: 2015-0066) and were undertaken in accordance with the guidelines set forth by the USPHS Policy on Humane Care and Use of Laboratory Animals. Animals were housed under standard conditions in approved facilities with 12 h light/dark cycles. Food and water was provided ad libitum throughout the course of the studies. […]
Non-standard residues stand in square brackets, D forms with d. Residues, ends and D or L forms follow the SMILES beside them. Groups on a side chain read outwards from the residue. *: point of attachment. DOTA = O=C(O)CN1CCN(CC(=O)O)CCN(CC(=O)*)CCN(CC(=O)O)CC1; 2Nal = N[C@@H](Cc1ccc2ccccc2c1)C(=O)O; dNMeOrn = CN[C@H](CCCN)C(=O)O; 4Amb = NCc1ccc(C(=O)O)cc1

| molecule | tissue to tissue ratio at 2 h |
| --- | --- |
| CN1C(=O)[C@@H](Cc2ccc(O)cc2)NC(=O)CNC(=O)[C@H](Cc2ccc3ccccc3c2)NC(=O)[C@H](CCCNC(=N)N)NC(=O)[C@H]1CCCNC(=O)c1ccc(CNC(=O)CN2CCN(CC(=O)O)CCN(CC(=O)O)CCN(CC(=O)O)CC2)cc1 (68Ga complex, metal not drawn) [Pentixafor, reference compound] (cyclo([dY][dNMeOrn]([4Amb-DOTA])R[2Nal]G)) | 101 |

---

assay protocol: Biodistribution in mice bearing bilateral PC3-WT/PC3-CXCR4 xenograft tumors
Format: in vivo, BALB/c mice
details: male, BALB/c athymic nude, mouse, PC3-CXCR4 tumor and kidneys, iv, total radioactivity, 2 h p.i.; read-out: PC3-CXCR4 Tumor-to-Tissue Ratio Kidneys
Non-standard residues stand in square brackets, D forms with d. Residues, ends and D or L forms follow the SMILES beside them. Groups on a side chain read outwards from the residue. *: point of attachment. DOTA = O=C(O)CN1CCN(CC(=O)O)CCN(CC(=O)*)CCN(CC(=O)O)CC1; 2Nal = N[C@@H](Cc1ccc2ccccc2c1)C(=O)O; dNMeOrn = CN[C@H](CCCN)C(=O)O; 4Amb = NCc1ccc(C(=O)O)cc1
observed property: tissue to tissue ratio at 2 h

| molecule | reading |
| --- | --- |
| CN1C(=O)[C@@H](Cc2ccc(O)cc2)NC(=O)CNC(=O)[C@H](Cc2ccc3ccccc3c2)NC(=O)[C@H](CCCNC(=N)N)NC(=O)[C@H]1CCCNC(=O)c1ccc(CNC(=O)CN2CCN(CC(=O)O)CCN(CC(=O)O)CCN(CC(=O)O)CC2)cc1 (68Ga complex, metal not drawn) [Pentixafor, reference compound] (cyclo([dY][dNMeOrn]([4Amb-DOTA])R[2Nal]G)) | 5.3 |

---

assay protocol: Biodistribution in mice bearing bilateral PC3-WT/PC3-CXCR4 xenograft tumors
Type: in vivo, BALB/c mice
details: male, BALB/c athymic nude, mouse, PC3-CXCR4 tumor and PC3-WT tumor, iv, total radioactivity, 2 h p.i.; read-out: PC3-CXCR4 Tumor-to-Tissue Ratio PC3-WT
Non-standard residues stand in square brackets, D forms with d. Residues, ends and D or L forms follow the SMILES beside them. Groups on a side chain read outwards from the residue. *: point of attachment. DOTA = O=C(O)CN1CCN(CC(=O)O)CCN(CC(=O)*)CCN(CC(=O)O)CC1; 2Nal = N[C@@H](Cc1ccc2ccccc2c1)C(=O)O; dNMeOrn = CN[C@H](CCCN)C(=O)O; 4Amb = NCc1ccc(C(=O)O)cc1
observed property: tissue to tissue ratio at 2 h

| compound | observed property | reading |
| --- | --- | --- |
| CN1C(=O)[C@@H](Cc2ccc(O)cc2)NC(=O)CNC(=O)[C@H](Cc2ccc3ccccc3c2)NC(=O)[C@H](CCCNC(=N)N)NC(=O)[C@H]1CCCNC(=O)c1ccc(CNC(=O)CN2CCN(CC(=O)O)CCN(CC(=O)O)CCN(CC(=O)O)CC2)cc1 (68Ga complex, metal not drawn) [Pentixafor, reference compound] (cyclo([dY][dNMeOrn]([4Amb-DOTA])R[2Nal]G)) | tissue to tissue ratio at 2 h | 2.8 |

---

Listing of recorded Blood tissue activity by entry.
assay protocol: Biodistribution in mice bearing bilateral PC3-WT/PC3-CXCR4 xenograft tumors
Format: in vivo, BALB/c mice
details: 1 h p.i.
observed property: Blood tissue activity

| molecule | observed property | reading |
| --- | --- | --- |
| FCCn1cc(-c2cc(CN3CCCNCCNCCCNCC3)ccc2CNCc2ccccn2)nn1 [RPS-534] | Blood tissue activity | 0.30±0.08 %ID/g |
| FCCn1cc(CCNCc2ccc(CN3CCCNCCNCCCNCC3)cc2)nn1 [RPS-552] | Blood tissue activity | 0.21±0.07 %ID/g |
| FCCn1cc(-c2cc(CNCc3ccccn3)ccc2CN2CCCNCCNCCCNCC2)nn1 [RPS-533] | Blood tissue activity | 0.30±0.06 %ID/g |
| FCCn1cc(CNCc2ccc(CN3CCCNCCNCCCNCC3)cc2)nn1 [RPS-547] | Blood tissue activity | 0.28±0.06 %ID/g |

---

Test system: PC3-CXCR4 xenograft tumors
assay protocol: Biodistribution in mice bearing bilateral PC3-WT/PC3-CXCR4 xenograft tumors
Format: in vivo, BALB/c mice
details: 1 h p.i.
Listing of recorded PC3-CXCR4 Tumor-to-Tissue Ratio Blood by entry.

| compound | target system | PC3-CXCR4 Tumor-to-Tissue Ratio Blood |
| --- | --- | --- |
| FCCn1cc(CCNCc2ccc(CN3CCCNCCNCCCNCC3)cc2)nn1 [RPS-552] | PC3-CXCR4 xenograft tumors | 11.9 |
| FCCn1cc(-c2cc(CN3CCCNCCNCCCNCC3)ccc2CNCc2ccccn2)nn1 [RPS-534] | PC3-CXCR4 xenograft tumors | 27.5 |
| FCCn1cc(-c2cc(CNCc3ccccn3)ccc2CN2CCCNCCNCCCNCC2)nn1 [RPS-533] | PC3-CXCR4 xenograft tumors | 6.9 |
| FCCn1cc(CNCc2ccc(CN3CCCNCCNCCCNCC3)cc2)nn1 [RPS-547] | PC3-CXCR4 xenograft tumors | 10.1 |

---

assay protocol: Biodistribution in mice bearing bilateral PC3-WT/PC3-CXCR4 xenograft tumors
Type: in vivo, BALB/c mice
details: male, BALB/c athymic nude, mouse, PC3-CXCR4 tumor and lungs, iv, total radioactivity, 2 h p.i.; read-out: PC3-CXCR4 Tumor-to-Tissue Ratio Lungs
Non-standard residues stand in square brackets, D forms with d. Residues, ends and D or L forms follow the SMILES beside them. Groups on a side chain read outwards from the residue. *: point of attachment. DOTA = O=C(O)CN1CCN(CC(=O)O)CCN(CC(=O)*)CCN(CC(=O)O)CC1; 2Nal = N[C@@H](Cc1ccc2ccccc2c1)C(=O)O; dNMeOrn = CN[C@H](CCCN)C(=O)O; 4Amb = NCc1ccc(C(=O)O)cc1
observed property: tissue to tissue ratio at 2 h

| compound | observed property | reading |
| --- | --- | --- |
| CN1C(=O)[C@@H](Cc2ccc(O)cc2)NC(=O)CNC(=O)[C@H](Cc2ccc3ccccc3c2)NC(=O)[C@H](CCCNC(=N)N)NC(=O)[C@H]1CCCNC(=O)c1ccc(CNC(=O)CN2CCN(CC(=O)O)CCN(CC(=O)O)CCN(CC(=O)O)CC2)cc1 (68Ga complex, metal not drawn) [Pentixafor, reference compound] (cyclo([dY][dNMeOrn]([4Amb-DOTA])R[2Nal]G)) | tissue to tissue ratio at 2 h | 17.1 |

---

assay protocol: Biodistribution in mice bearing bilateral PC3-WT/PC3-CXCR4 xenograft tumors
Type: in vivo, BALB/c mice
details: male, BALB/c athymic nude, mouse, PC3-CXCR4 tumor and bone, iv, total radioactivity, 1 h p.i.; read-out: PC3-CXCR4 Tumor-to-Tissue Ratio Bone
Non-standard residues stand in square brackets, D forms with d. Residues, ends and D or L forms follow the SMILES beside them. Groups on a side chain read outwards from the residue. *: point of attachment. DOTA = O=C(O)CN1CCN(CC(=O)O)CCN(CC(=O)*)CCN(CC(=O)O)CC1; 2Nal = N[C@@H](Cc1ccc2ccccc2c1)C(=O)O; dNMeOrn = CN[C@H](CCCN)C(=O)O; 4Amb = NCc1ccc(C(=O)O)cc1

| molecule | tissue to tissue ratio at 1 h |
| --- | --- |
| CN1C(=O)[C@@H](Cc2ccc(O)cc2)NC(=O)CNC(=O)[C@H](Cc2ccc3ccccc3c2)NC(=O)[C@H](CCCNC(=N)N)NC(=O)[C@H]1CCCNC(=O)c1ccc(CNC(=O)CN2CCN(CC(=O)O)CCN(CC(=O)O)CCN(CC(=O)O)CC2)cc1 (68Ga complex, metal not drawn) [Pentixafor, reference compound] (cyclo([dY][dNMeOrn]([4Amb-DOTA])R[2Nal]G)) | 28.7 |

Just for reference, paper PMC6514812 is where these values come from.
